# System: M14 melanoma
# protocol-details: NCI tumour cell line growth inhibition, 48 h
quantity: TGI

Solved cases below.
>  <molecule>
CC(C)[C@@H]1CC[C@@H]2[C@@H]1[C@H](OC(=O)/C=C/c1ccccc1)[C@]1(C(C)C)C[C@@H](OC(=O)CO)[C@@]2(C)O1

>  <target-under-test>
M14 melanoma

>  <endpoint-result>
12.1 µM

$$$$
>  <molecule>
COc1cc(C2C(C#N)=C(N)Oc3cc(O)ccc32)cc(OC)c1OC (stereo not drawn)

>  <target-under-test>
M14 melanoma

>  <endpoint-result>
> 100 µM

$$$$
>  <molecule>
CNC1C(OC2C(OC3C(O)C(O)C(O)C(O)C3O)OC(C)C2(O)CO)OC(CO)C(O)C1O (stereo not drawn) (tested in a mixture with another compound)

>  <target-under-test>
M14 melanoma

>  <endpoint-result>
> 100 µM

$$$$
>  <molecule>
O=C(c1ccccc1)c1c(CNCc2ccccc2)n(C(=O)c2ccccc2)c2ccccc12

>  <target-under-test>
M14 melanoma

>  <endpoint-result>
> 100 µM

$$$$

// each listed molecule needs a value for TGI
1. c1ccc(C2N3CCCCC3[C@@H]3c4[nH]c5ccccc5c4CCN23)cc1 (stereo partly drawn)
2. O=C1OC(c2ccccc2)N/C1=C\c1ccc2c(c1)OCO2 (stereo not drawn)
3. CCCCCC(/C=N/N)C(O)(C(F)(F)F)C(F)(F)F (stereo not drawn)
4. CC1=C(C(=O)Nc2ccccc2C)C(c2ccc(C3C(C(=O)Nc4ccccc4C)=CNC=C3C(=O)Nc3ccccc3C)cc2)C(C(=O)Nc2ccccc2C)=C(C)N1

Reply:
1. > 100 µM
2. > 100 µM
3. > 10 µM
4. 33 µM

* * *

# Test system: SK-OV-3 ovarian
# protocol-details: NCI tumour cell line growth inhibition, 48 h; in the data active = GI50 below about 0.43 µM; inactive = the rest
Hello, when you answer, please use one of the following outcomes: true (1) for active, false (0) for inactive

Take a look at these entries with their results.
>  <molecule>
CCN1CCN(C(=O)[C@]23CCC(C)(C)C[C@@H]2C2=CC[C@@H]4[C@@]5(C)C/C(=C/c6cccnc6)C(=O)C(C)(C)[C@@H]5CC[C@@]4(C)[C@]2(C)CC3)CC1

>  <class-label>
false (0)

$$$$
>  <molecule>
O=C(/C=C/c1cccnc1)c1ccccc1O

>  <class-label>
false (0)

$$$$
>  <molecule>
CC([O-])C(=O)[O-].NCC1CCC1CN.[Pt+4] (stereo not drawn)

>  <class-label>
false (0)

$$$$
>  <molecule>
Oc1cc2ccccc2cc1-c1n[nH]c(=S)n1-c1ccc(Cl)cc1

>  <class-label>
false (0)

$$$$
>  <molecule>
S=C(N/N=C(/c1ccccc1)c1ccccn1)Nc1cccc(Cl)c1

>  <class-label>
true (1)

$$$$

Query: Please share the test call associated with Cc1ccc(S(=O)(=O)n2cc(-c3nnnn3-c3ccc(Cl)cc3)c(=O)c3ccccc32)cc1 .
Reply: false (0)

Query: Record request — test call for COc1ccc(-c2nocc2-c2cc(OC)c(OC)c(OC)c2)cc1
Reply: true (1)

Query: // outcome(item) with item = Nc1c(C(=O)Nc2ccccc2)sc2nc3c(cc12)CCCC3
Reply: false (0)

* * *

# System: T-47D breast
# protocol-details: NCI tumour cell line growth inhibition, 48 h
Give measured TGI for each item. Keep answers brief.

>  <compound>
CP(C)(=S)P(C)(C)=S

>  <endpoint-result>
> 100 µM

$$$$
>  <compound>
CN(C)/C=N/S(=O)(=O)c1nn2c(C=O)c(-c3ccc(-c4ccc([N+](=O)[O-])cc4)o3)nc2s1

>  <endpoint-result>
> 44.6 µM

$$$$
>  <compound>
CC(=O)Nc1ccc(-c2nc3ccccc3s2)cc1O

>  <endpoint-result>
> 100 µM

$$$$
>  <compound>
Cc1cc2[nH]c3c(C#N)c(-c4ccccc4)c(CN4CCOCC4)c(=O)n3c2cc1C

>  <endpoint-result>
> 100 µM

$$$$

Now, please, on to the next compound.
Quick note, TGI for CC1OC(OC2CC(O)(C(=O)CO)Cc3c(O)c4c(c(O)c32)C(=O)c2ccccc2C4=O)CC(N)C1O (stereo not given) landed at 0.134 µM

* * *

# Test system: HOP-92 NSCLC
# protocol-details: NCI tumour cell line growth inhibition, 48 h; in the data active means GI50 below about 0.43 µM; inactive means the rest
Hello, when you answer, please use one of the following outcomes: True = active, False = inactive

Answered examples (5):
>  <molecule>
COc1cc(C2C(C#N)=C(N)Oc3cc(O)ccc32)cc(OC)c1OC (centres undefined)

>  <class-label>
True

$$$$
>  <molecule>
Cc1ccc(NC(=O)c2nc(S(C)=O)oc2-c2ccc(F)cc2)cc1Nc1nccc(-c2cccnc2)n1 (centres undefined)

>  <class-label>
False

$$$$
>  <molecule>
COc1ccc(/C=C/C(=O)c2ccc(Nc3ccnc4cc(Cl)ccc34)cc2)cc1

>  <class-label>
False

$$$$
>  <molecule>
C=C1N(C)c2ccc(Cl)cc2C1(C)C

>  <class-label>
False

$$$$
>  <molecule>
Nc1c(C(=O)Nc2ccccc2)sc2nc3c(cc12)CCCC3

>  <class-label>
False

$$$$

Query: Recorded test outcome, item COc1cc(OC)cc(-c2cncn2-c2ccc(-c3nc4cc(OC)c(OC)c(OC)c4s3)cc2)c1
Reply: False

Query: Dear all, I need the recorded test outcome for O=C([O-])c1ccccc1Nc1ccccc1[O-].[Ni+3].[OH3+].[OH3+].[OH3+] , thank you.
Reply: False

Query: What is the recorded call for this molecule in the test? C[n+]1ccc(-c2c3nc(c(-c4ccc5c(ccc[n+]5C)c4)c4ccc([nH]4)c(-c4cc[n+](C)cc4)c4nc(c(-c5ccc6c(ccc[n+]6C)c5)c5ccc2[nH]5)C=C4)C=C3)cc1
Reply: False

Query: Dear all, I need the recorded test outcome for O=C1C(Cl)=C(Nc2cccc(O)c2)C(=O)N1c1cccc(Cl)c1Cl , thank you.
Reply: True

* * *

# System: HCT-15 colon
# protocol-details: NCI tumour cell line growth inhibition, 48 h; in the data active means GI50 below about 0.43 µM; inactive means the rest
Can you answer with just one of these options? active, inactive

Here's what some known entries look like.
>  <molecule>
CC(=O)Nc1sc2c(c1-c1nc3ccccc3s1)CNC2

>  <class-label>
inactive

$$$$
>  <molecule>
C[C@@]1(N2C(=O)OC[C@@H]2c2ccccc2)C(=O)N([C@H](CC(=O)N2CCC(N3CCCCC3)CC2)C(=O)NCc2cccc(C(F)(F)F)c2)[C@@H]1/C=C/c1ccccc1

>  <class-label>
inactive

$$$$
>  <molecule>
Nc1nc2c(c3cnccc13)C(c1cccc(Cl)c1)Cc1cnccc1-2 (stereo unspecified)

>  <class-label>
active

$$$$
>  <molecule>
O=C(CCl)Nc1ccc2c(c1)C(=O)c1ccc(NC(=O)CCl)cc1C2=O

>  <class-label>
active

$$$$
>  <molecule>
S=C(N/N=C(/c1ccccc1)c1ccccn1)Nc1cccc(Cl)c1

>  <class-label>
active

$$$$
>  <molecule>
CC([O-])C(=O)[O-].NCC1CCC1CN.[Pt+4] (stereo unspecified)

>  <class-label>
inactive

$$$$
>  <molecule>
NC[C@@](O)(c1ccc(Cl)cc1)c1ccc(-c2cn[nH]c2)cc1

>  <class-label>
inactive

$$$$
>  <molecule>
CC(C)[C@@H]1CC[C@@H]2[C@@H]1[C@H](OC(=O)/C=C/c1ccccc1)[C@]1(C(C)C)C[C@@H](OC(=O)CO)[C@@]2(C)O1

>  <class-label>
inactive

$$$$
>  <molecule>
O=C(Nc1ccc(Br)cc1F)c1cc(Br)ccc1O

>  <class-label>
inactive

$$$$
>  <molecule>
CSc1nc2c(c(=O)[nH]1)C(c1ccc(Cl)cc1)C1=C(N2)/C(=C/c2ccc(Cl)cc2)CNC1 (stereo unspecified)

>  <class-label>
inactive

$$$$

Query: Hi, do you know how CC[C@@]1(O)C(=O)OCc2c1cc1n(c2=O)Cc2c-1nc1ccccc1c2/C=N/OC(C)(C)C came out in this test?
Reply: active

Query: # lookup: test call for CN1CCCN(C(c2ccccc2)c2ccc(Br)cc2)CC1 (stereo unspecified)
Reply: inactive

Query: Could you please tell me the result logged for C=C(CN1CCN(c2cccc(F)c2)CC1)c1ccc(C(=O)Nc2ccccc2N)cc1 in this assay?
Reply: inactive

Query: Can you look up the reported call for COc1cc(OC)cc(-c2cncn2-c2ccc(-c3nc4cc(OC)c(OC)c(OC)c4s3)cc2)c1 for me?
Reply: inactive

Query: Answer briefly: the call reported for CCCN1CCN(c2ccc3nc(-c4ccc5nc(-c6ccc(OCC)c(OCC)c6)[nH]c5c4)[nH]c3c2)CC1 in this assay.
Reply: inactive

Query: For COc1ccc(Cn2c(Br)c3c(c2-c2cc(OC)c(OC)c(OC)c2)CCc2sc(NC(C)=O)nc2-3)cc1 , which call appears in the assay record?
Reply: inactive

* * *

# Tested on: NCI/ADR-RES ovarian
# protocol-details: NCI tumour cell line growth inhibition, 48 h
quantity: TGI

Some solved cases for reference:
>  <molecule>
CC(NC(=O)C(N)CC(=O)O)NC(=O)N1CCCC1 (stereo unspecified)

>  <target-under-test>
NCI/ADR-RES ovarian

>  <endpoint-result>
> 100 µM

$$$$
>  <molecule>
CC/C=C\C/C=C\C[C@H]1C/C=C2/C(=O)C=C[C@H]2C/C=C\CCC(=O)O1

>  <target-under-test>
NCI/ADR-RES ovarian

>  <endpoint-result>
> 14.3 µM

$$$$
>  <molecule>
Cc1cccc(NC(=S)N/N=C(/c2ccccc2)c2ccccn2)c1

>  <target-under-test>
NCI/ADR-RES ovarian

>  <endpoint-result>
6.63 µM

$$$$
>  <molecule>
CC[C@]12C=CCN3CCC4(c5cc([C@@]6(C(=O)OC)CC7CN(CCc8c6[nH]c6ccccc86)C[C@@H]6CCC[C@H]76)c(OC)cc5N(C)C4[C@](O)(C(=O)OC)C1OC(C)=O)C32 (stereo partly specified)

>  <target-under-test>
NCI/ADR-RES ovarian

>  <endpoint-result>
4.75 µM

$$$$
>  <molecule>
O=C(O)C(F)(OC(F)(F)C(F)(OC(F)(F)C(F)(F)C(F)(F)F)C(F)(F)F)C(F)(F)F (stereo unspecified)

>  <target-under-test>
NCI/ADR-RES ovarian

>  <endpoint-result>
> 100 µM

$$$$

// TGI value for CC1(C)OC(=S)N(c2ccccc2)C12C=Cc1cc3ccccc3cc1O2 (stereo unspecified) : > 100 µM
